biological target: T1, recombinant human CFD, His-tagged (human, UniProt P00746 26-253); test: SPR MX96
T1 construct: also called rhCFD-His
T1 sequence (P00746 26-253 limits assumed): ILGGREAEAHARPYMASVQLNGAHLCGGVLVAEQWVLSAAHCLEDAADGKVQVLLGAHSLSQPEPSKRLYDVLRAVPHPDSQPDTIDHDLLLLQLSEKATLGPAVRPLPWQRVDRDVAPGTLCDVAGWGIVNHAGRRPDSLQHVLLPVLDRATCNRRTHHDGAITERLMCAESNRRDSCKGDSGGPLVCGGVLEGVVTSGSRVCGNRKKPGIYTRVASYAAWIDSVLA
parameter measured: Kd (nM)
Provide only the numeric value, understood in nM.

>>> number("KCD122 (antibody, V domains shown, chimeric) VH: EVQLQQSGPELVKPGASVKISCKASGYTFTDYYKNWMRQRHGESLEWIGDINPNNGDANYNQKFKGKATLTVDKSSSTAYMELRSLTSEDSAVYFCAREGPSFAYWGHGTLVTVSA VL: DVLMTQTPLSLPVSLGDQASISCRSSQTIVHSNGDTYLEWYLQKPGQSPNLLIYKVSNRFSGVPDRFSGSGSGTDFTLKISRVEAEDLGVYYCFQGSHVPPTFGGGTKLEIK")
0.95
>>> number("KCD131 (antibody, V domains shown, chimeric) VH: QVQLQQSGPELVKPGASVKISCKASAYTFTDYYINWVKQRPGQGPEWIGWIFPGSNSTYSNEKFEVKATLTVDESSSTAYMLLSSLTSEDSAVYFCARLGYFGSSYHALDYWGQGTSVTVSS VL: DIQMTQSPASLSVSVGETVTITCRASENIYSHLAWFQQKQGKSPRLLVYSATNLPDGVPSRFSGSGSGTQYSLKINILQSEDFGSYYCQHFWGTPWTFGGGTKLEIK")
0.047
>>> number("KCD104 (antibody, V domains shown, chimeric) VH: QVQLQQPGAELVRPGTSVKLSCKASGYTFTSYWMHWVKQRPGQGLEWIGVIDPSDSYTYYNQKFKGKATLTVDTSSSTAYMQLSSLTSEDSAVYYCARNGYDGAMDYWGQGTSVTVSS VL: EIQMTQTTSSLSASLGDRVTISCRASQDISNYLNWYQQKPDGTVKLLIYYPSRLHSGVPSRFSGSGSGTDYSLTISNLEQEDFATYFCQQGNTLPYTFGGGTKLEIK")
1.2
>>> number("KCD121 (antibody, V domains shown, chimeric) VH: EVQLQQSGPELVKPGASVKISCKASGYTFTDYYKNWMRQRHGESLEWIGDINPNNGDTSYNQKFRGKATLTVDKSSSTAFMELRSLTSEDSAVYYCAREGPSFAYWGQGTLVTVSA VL: DVLMTQTPLSLPVSLGDQASISCRSNQTIVHSNGDTYLEWYLQKPGQSPNLLIYKVSNRFSGVPDRFSGSGSGTDFTLRISRVEAEDLGVYYCFQGSHVPPTFGGGTKLEIK")
1.3

Could you now consider this next binder?
Query: Entry KCD210 (antibody, V domains shown) VH: EVQLQQSGPVLVKPGASVTMSCKASGYTFTEYYMNWVKQSHGKSLDWIGVINPYSGGTSYKQKFKDKATLTVDKSSSTAYMELNGLTSEDSAVYFCVRGGLRRNYFDYWGQGTTLTVSS VL: EIVLTQSPALMTASPGEKVTITCSVSSSISSTNLHWYQQKSGTSPKPWIFGTSNLASGVPVRFSGSGSGTSYSLTISNMEAEDAATYYCQQWNSYPFTFGTGTKLEIK : reported Kd = ?
Reply: 2.9
